Values were extracted from PubChem BioAssay (NCI).

Tested on: HOP-62 NSCLC
Assay: NCI-60 one-dose screen, 48 h (100 = growth as untreated, 0 = no growth, -100 = all killed)
Conditions: 10 µM unless noted
Compounds without any hit were thinned out: in the full panel of roughly 83,000, 20% have a hit.
Decision: growth compared against 70%; not below it gives 1 (yes), below it gives 0 (no).

[[record]]
compound = "Cc1cc(N2CCCCC2)nc(N2CCN(CC(=O)Nc3ccc4c(ccn4Cc4ccccc4)c3)CC2)n1"
class_label = "0 (no)"


// next entry
Inquiry: Kindly determine if growth recorded for COc1ccc(C2CC(c3ccc4c(c3)OCO4)=Nc3c(N)ncnc3N2)cc1 (stereo not given) is above or exactly 70%.
Reply text: 1 (yes)
